Every entry's value here was drawn from PubChem BioAssay (EPA / NIEHS).

- testTarget: Aryl hydrocarbon receptor (Homo sapiens)
- methodSummary: ATG_Ahr_CIS: Attagene CIS-FACTORIAL HepG2 Assay for human Aryl Hydrocarbon Receptor (Ahr) (AID 2282930)
- testParameters: HepG2 AhR cis-factorial reporter transcription; actives raise or lower the signal
Calls of active or inactive are those of the source. How the source made its calls: active means hit-call score of the fitted dose curve at least 0.9, where 1 is the maximum; inactive means score below 0.9.
Write down one outcome, taken from YES for active, NO for inactive

Sample answers from the record:
compound: O=S(=O)(O)c1ccc(Cl)cc1
category: NO
--
compound: CC(C)(C)C(=O)C1C(=O)c2ccccc2C1=O
category: YES
--
compound: CCCC(=O)OCC(COC(=O)CCC)OC(=O)CCC
category: NO
--
compound: CCOC(=O)CC(=O)C(F)(F)C(F)(F)F
category: NO
--
compound: CN(C(=O)C(F)(F)C(F)(F)C(F)(F)F)[Si](C)(C)C
category: NO

Exercise: Just curious, what result did NS(=O)(=O)C(F)(F)C(F)(F)C(F)(F)C(F)(F)C(F)(F)C(F)(F)F get here?
Key: NO

Exercise: Just curious, what result did COCCOCCC[Si](C)(O[Si](C)(C)C)O[Si](C)(C)C get here?
Key: NO

Exercise: Just curious, what result did CCC(Cc1c(I)cc(I)c(N)c1I)C(=O)O (stereo not drawn) get here?
Key: NO

Exercise: Just curious, what result did NC(=O)C(F)(F)C(F)(F)C(F)(F)C(F)(F)C(F)(F)C(F)(F)C(F)(F)F get here?
Key: NO

Exercise: Just curious, what result did C#CC(O)CCC (stereo not drawn) get here?
Key: NO

Exercise: Just curious, what result did NC(O)(C(F)(F)F)C(F)(F)F get here?
Key: YES

Exercise: Just curious, what result did CC(O)C#CC(C)O (stereo not drawn) get here?
Key: YES

Exercise: Just curious, what result did Cc1cccc(C)n1 get here?
Key: NO

====

- testTarget: Estrogen receptor beta (Homo sapiens) (UniProt Q92731)
- Sequence (Q92731 whole entry, looked up, the tested form may be a part): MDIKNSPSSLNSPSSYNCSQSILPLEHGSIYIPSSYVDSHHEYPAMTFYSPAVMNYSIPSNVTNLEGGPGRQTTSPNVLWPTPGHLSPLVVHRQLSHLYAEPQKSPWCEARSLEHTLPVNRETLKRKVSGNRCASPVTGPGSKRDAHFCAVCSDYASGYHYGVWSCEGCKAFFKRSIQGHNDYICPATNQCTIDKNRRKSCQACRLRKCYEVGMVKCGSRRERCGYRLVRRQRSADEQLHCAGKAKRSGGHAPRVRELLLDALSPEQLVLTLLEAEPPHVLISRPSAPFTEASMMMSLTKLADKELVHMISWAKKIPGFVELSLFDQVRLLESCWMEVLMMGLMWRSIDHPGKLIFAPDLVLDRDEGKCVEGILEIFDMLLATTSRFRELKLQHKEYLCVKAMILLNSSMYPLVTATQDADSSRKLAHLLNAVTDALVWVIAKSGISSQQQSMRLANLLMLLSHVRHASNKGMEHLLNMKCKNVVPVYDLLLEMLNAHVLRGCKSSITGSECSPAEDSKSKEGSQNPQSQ
- methodSummary: OT_ER_ERbERb_1440: Odyssey Thera (OT) 24-hour HEK293T Protein-Complementation Assay for Estrogen Receptor-beta/-beta Homodimer (AID 2283380);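 further: fluorescence gain from ER beta LBD homodimer complementation read by laser scanning cytometry; scored as signal increase over DMSO baseline for both agonists and antagonists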
Activity calls are given as the source filed them. The calls were made as follows: active = hit-call score of the fitted dose curve at least 0.9, where 1 is the maximum; inconclusive = response in the unintended direction; inactive = score below 0.9.
Write down one outcome, taken from T for active, F for inactive

Sample answers from the record:
molecule: CCOC(OCC)OCC
category: F
--
molecule: CCCCCCCCCCCCCC[P+](CCCC)(CCCC)CCCC
category: F
--
molecule: OCC1CCCO1 (configuration not stated)
category: F
--
molecule: COCCOCCC[Si](C)(O[Si](C)(C)C)O[Si](C)(C)C
category: T
--
molecule: CC(C)(C)c1cc(Cc2cc(C(C)(C)C)c(O)c(C(C)(C)C)c2)cc(C(C)(C)C)c1O
category: F
--
molecule: CCCCCCCCCCCCC[N+](C)(C)Cc1ccccc1
category: F
--
molecule: Cc1ccc(O)c(-n2nc3ccccc3n2)c1
category: F
--
molecule: CCCCCCCC/C=C\CCCCCCCC(=O)OCC(O)CO (configuration not stated)
category: F

Exercise: Just curious, what result did CCCCC(CC)COC(=O)c1ccc(N(C)C)cc1 (configuration not stated) get here?
Key: F

Exercise: Just curious, what result did CCN=c1cc2oc3cc(NCC)c(C)cc3c(-c3ccccc3C(=O)OCC)c-2cc1C get here?
Key: T

Exercise: Just curious, what result did CCOC(=O)C1CC(=O)C(=C(O)C2CC2)C(=O)C1 (configuration not stated) get here?
Key: F

Exercise: Just curious, what result did F[Si-2](F)(F)(F)(F)F get here?
Key: F
